B1: EHEE_rd2_1257 (parent)
chain: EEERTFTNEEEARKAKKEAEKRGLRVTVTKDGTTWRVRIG

- Variants of: B1
- Method: folding stability dG (cDNA display proteolysis); higher = more stable
- Run parameters: PBS, room temperature
Rule: folding stability dG of 8 kJ/mol or more gives YES; anything lower gives NO.

See these solved cases before continuing.
Sequence content: EEERTFTNEEEARKAKKEAEKRNLRVTVTKDGTTWRVRIG [G23N]
Group: NO
//
Sequence content: EEEQTFTNEEEARKAKKEAEKRGLRVTVTKDGTTWRVRIG [R4Q]
Group: YES
//
Sequence content: EEERTFTNEEEARKAKKEAWKRGLRVTVTKDGTTWRVRIG [E20W]
Group: NO
//
Sequence content: EEERTFTREEEARKAKKEAEKRGLRVTVTKDGTTWRVRIG [N8R]
Group: NO
//
Sequence content: EEERTFTNEEEASKAKKEAEKRGLRVTVTKDGTTWRVRIG [R13S]
Group: NO
//
Sequence content: EEERTFTNVEEARKAKKEAEKRGLRVTVTKDGTTWRVRIG [E9V]
Group: NO

**Q:** Assess whether reported folding stability dG for EEERTFTNEEEARKAKKEAEKRGLRGTVTKDGTTWRVRIG [V26G] sits at 8 kJ/mol or higher.
**A:** NO

**Q:** Same for EEERTFTNEEEARKAKKEAEKRGNRVTVTKDGTTWRVRIG [L24N]
**A:** NO

**Q:** Same for EEERTFTAEEEARKAKKEAEKRGLRVTVTKDGTTWRVRIG [N8A]
**A:** NO

Taken from the MegaScale stability set (Tsuboyama et al. 2023).
